Assign TGI to each entry below.
tested on: XF 498 CNS; assay: NCI tumour cell line growth inhibition, 48 h

COC(OC)c1cccc2c1C(=O)CCC1(O)c3ccccc3C1C2 (stereo unspecified)    > 100 µM
COC1=CC(O)(CC(N)=O)c2ccccc2C1=O (stereo unspecified)    > 100 µM
CC(=O)O/N=C/c1ncccc1OC(C)=O    > 100 µM
COc1ccc(C2C3C(=O)C=CC(=O)C3[C@@H]2C)cc1OC (stereo partly specified)    > 100 µM
CC(C)(C)c1nc2c(o1)C(=O)c1ccccc1C2=O    7.15 µM

Now, please, on to the next compound.
Prompt line: Identify measured TGI associated with CC[C@H]1CN2CCc3cc(OC)c(OC)cc3[C@@H]2C[C@@H]1C[C@H]1NCCc2cc(O)c(OC)cc21
Response line: 0.0388 µM

----------
test system: M14 melanoma; assay: NCI tumour cell line growth inhibition, 48 h
measured_metric: TGI (µM)
Numbers only, in µM.

CCCC/C=C/C1Cc2ccccc2CN1S(=O)(=O)c1ccc(C)cc1 (centres undefined)    26
C=C1C[C@](OC)([C@H](O)C(=O)N[C@@H](OC)[C@@H]2C[C@@H](O)C(C)(C)[C@@H](C[C@@H](COC)OC)O2)O[C@H](C)[C@@H]1C    0.0041
O=[N+]([O-])c1ccc(-c2nc(-c3ccccc3)c(-c3ccccc3)n2-c2ccccc2)cc1    16

Please look at the items below and tell me TGI for each one, in order.
1. CCCc1c(OC)c(=O)c2c(OC)cc(OC)c3c4c(OC)cc(OC)c5c(=O)c(OC)c(CCC)c(c1c23)c54
2. CCn1c2c(n(CC)c1=S)-c1c(n(CC)c(=S)n1CC)SSSS2

Response line:
30.6
18.1

----------
tested on: SK-MEL-28 melanoma; test: NCI tumour cell line growth inhibition, 48 h
Assign TGI to each entry below.

Use these answered entries as a reference point.
O=c1[nH]c(=O)n(C2CC(O)C(CO)O2)cc1OCCCc1ccccc1 (stereo not given)    > 100 µM
CSc1nc(-c2cc3c(c(SC)n2)CCCCC3)cc2c1CCCCC2    > 100 µM
CS(=O)CCCCCN=C=S (stereo not given)    16.8 µM
O=P(Oc1ccccc1)(Oc1ccccc1)Oc1c[nH]c2ccccc12    26.6 µM
COc1ccc(C(O)/C(=N\NC(N)=S)c2nc3ccc([N+](=O)[O-])cc3[nH]c2=O)cc1OC (stereo not given)    > 100 µM

Please look at the items below and tell me TGI for each one, in order.
1. O=C(NNC(=S)Nc1ccccc1)c1ccccc1Nc1ccccc1C(=O)NNC(=S)Nc1ccccc1
2. CC1CC[C@@]2(OC1)OC1C[C@H]3[C@@H]4C/C(=N\N(C)C)[C@@]5(O)CC(O)CC[C@]5(C)[C@H]4CC[C@]3(C)C1[C@@H]2C (stereo not given in full)
3. CCOC(=O)c1c(C)c2c(n1C)CCc1cn[nH]c1-2
4. C=C/C=C(\NC(=O)C(Cl)(Cl)Cl)[Si](C)(C)C

Response line:
1. > 100 µM
2. > 100 µM
3. > 100 µM
4. > 100 µM

Prompt line: Identify measured TGI associated with COC(OC)c1cccc2c1C(=O)CCC1(O)c3ccccc3C1C2 (stereo not given)
Response line: > 100 µM
